# TARGET_UNDER_TEST: GST–RelA (Homo sapiens, UniProt Q04206)
# Sequence (Q04206 19-306 limits assumed): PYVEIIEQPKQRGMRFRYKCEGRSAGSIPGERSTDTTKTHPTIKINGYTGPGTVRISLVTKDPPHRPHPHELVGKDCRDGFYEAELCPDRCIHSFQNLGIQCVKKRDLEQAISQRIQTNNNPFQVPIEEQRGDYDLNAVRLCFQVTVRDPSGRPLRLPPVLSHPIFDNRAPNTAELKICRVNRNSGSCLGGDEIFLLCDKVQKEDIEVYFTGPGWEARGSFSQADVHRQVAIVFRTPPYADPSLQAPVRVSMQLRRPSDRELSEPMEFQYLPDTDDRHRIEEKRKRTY
# PROTOCOL: SPR analysis with immobilized GST–RelA
# Assay type: binding
# STUDY_CONDITIONS: GST–RelA, 0.625–20 µM A55; read-out: dissociation constant (Kd)

>  <RECORD_SMILES>
Cc1cc(O)n(CC(=O)O)c(=O)c1C(N)=O

>  <TARGET_UNDER_TEST>
GST–RelA (Homo sapiens, UniProt Q04206)

>  <Kd / nM>
2870

$$$$

====

# TARGET_UNDER_TEST: GST–RelA (Homo sapiens, UniProt Q04206)
# PROTOCOL: SPR analysis with immobilized GST–RelA
# Type: binding
# STUDY_CONDITIONS: GST–RelA, 3.125–100 µM A55; read-out: dissociation constant (Kd)

>  <RECORD_SMILES>
Cc1cc(O)n(CC(=O)O)c(=O)c1C(N)=O

>  <TARGET_UNDER_TEST>
GST–RelA (Homo sapiens, UniProt Q04206)

>  <Kd [µM]>
13

$$$$
